- protocol.text: Half life in dog at 1 mg/kg, iv administered as 20% cyclodextrin solution
- Assay type: ADME, organism-based, Canis lupus familiaris
- condition: in vivo
measured.quantity: half-life (h)
Answer in h, number only, no unit symbol.

Provide one value: measured half-life of CNc1ncc2cc(-c3cc(NC(=O)NCCC(C)(C)C)c(F)cc3C)c(C)nc2n1
1.8

###

- tested.system: Serine/threonine-protein kinase B-raf (Homo sapiens, UniProt P15056, V600E)
- Sequence (P15056 2-766 V600E limits assumed): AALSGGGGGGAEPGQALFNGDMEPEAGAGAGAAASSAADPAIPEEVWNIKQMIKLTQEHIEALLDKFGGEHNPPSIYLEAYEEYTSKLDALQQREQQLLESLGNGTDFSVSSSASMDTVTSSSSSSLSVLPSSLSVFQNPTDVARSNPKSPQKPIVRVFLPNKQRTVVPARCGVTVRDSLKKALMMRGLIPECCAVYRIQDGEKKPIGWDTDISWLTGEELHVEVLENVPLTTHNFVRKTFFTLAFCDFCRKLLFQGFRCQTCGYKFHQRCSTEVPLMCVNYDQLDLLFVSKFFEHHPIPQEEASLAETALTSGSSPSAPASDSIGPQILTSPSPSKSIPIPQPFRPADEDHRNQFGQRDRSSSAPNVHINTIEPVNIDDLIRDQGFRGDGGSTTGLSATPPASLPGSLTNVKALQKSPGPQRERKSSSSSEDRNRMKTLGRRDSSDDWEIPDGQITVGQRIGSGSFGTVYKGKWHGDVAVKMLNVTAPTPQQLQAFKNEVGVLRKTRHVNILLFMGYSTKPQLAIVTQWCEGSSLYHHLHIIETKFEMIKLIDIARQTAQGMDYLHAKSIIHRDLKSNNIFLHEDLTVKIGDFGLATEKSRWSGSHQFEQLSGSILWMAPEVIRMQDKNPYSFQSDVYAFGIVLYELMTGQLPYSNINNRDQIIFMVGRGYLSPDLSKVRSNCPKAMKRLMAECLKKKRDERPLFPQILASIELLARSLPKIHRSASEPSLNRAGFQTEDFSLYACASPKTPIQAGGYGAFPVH
- protocol.text: Inhibition of recombinant BRAF V600E mutant (unknown origin) assessed as ADP formation measured for 5 hrs by pyruvate kinase/lactate dehydrogenase coupled assay in presence of ATP, MEK1, NADH
Reported pIC50 by item:
pIC50 field: float, defined as -log10 of concentration (mol/L).

CNc1cc2nc(C)c(-c3cc(NC(=O)NCCC(C)(C)C)c(F)cc3C)cc2cn1 | 7.74
CNc1cc2nc(C)c(-c3cc(NC(=O)NC[C@@H](O)C(C)(C)C)c(F)cc3C)cc2cn1 | 8.11
CCn1c(=O)c(-c2cc(NC(=O)NCCC(C)(C)C)c(F)cc2C)cc2cnc(NC)cc21 | 8.38
CNc1ncc2cc(-c3cc(NC(=O)NCCC(C)(C)C)c(F)cc3C)cnc2n1 | 8.70
CNc1cc2c(cn1)cc(-c1ccc(F)c(NC(=O)Nc3cc(C(C)(C)C)no3)c1)c(=O)n2[C@H]1CCOC1 | 9.00
CCn1c(=O)c(-c2ccc(F)c(NC(=O)Nc3cc(C(C)(C)C)no3)c2)cc2cnc(NC)cc21 | 8.92
CNc1cc2nc(C)c(-c3ccc(F)c(NC(=O)NCCC(C)(C)C)c3)cc2cn1 | 8.52
CNc1ncc2cc(-c3ccc(F)c(NC(=O)NCCC(C)(C)C)c3)c(C)nc2n1 | 8.12
CNc1cc2nc(C)c(-c3cc(NC(=O)NCCC(C)(C)C)ccc3C)cc2cn1 | 8.37

For the next question, use this molecule.
Answer with the recorded pIC50 for the molecule listed here: Cc1cc(F)c(NC(=O)NCCC(C)(C)C)cc1-c1cc2cnc(N)nc2nc1C
8.10
